system: Hck (UniProt P08631)
Sequence (P08631 whole entry, looked up): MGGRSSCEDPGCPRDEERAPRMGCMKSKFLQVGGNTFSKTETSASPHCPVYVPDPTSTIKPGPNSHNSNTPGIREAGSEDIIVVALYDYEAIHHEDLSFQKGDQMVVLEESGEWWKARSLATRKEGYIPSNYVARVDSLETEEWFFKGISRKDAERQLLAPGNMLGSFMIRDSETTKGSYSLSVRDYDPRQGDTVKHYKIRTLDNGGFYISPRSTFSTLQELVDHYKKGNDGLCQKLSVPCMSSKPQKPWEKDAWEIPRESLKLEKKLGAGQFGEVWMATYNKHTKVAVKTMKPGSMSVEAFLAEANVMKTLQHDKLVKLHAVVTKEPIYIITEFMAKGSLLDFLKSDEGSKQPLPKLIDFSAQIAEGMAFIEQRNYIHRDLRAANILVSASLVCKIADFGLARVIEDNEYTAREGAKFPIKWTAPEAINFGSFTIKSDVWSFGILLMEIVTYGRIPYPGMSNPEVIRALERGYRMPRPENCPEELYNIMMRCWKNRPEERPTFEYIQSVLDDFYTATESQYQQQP
experiment: phosphorylation enrichment, bacterial display (enrichment ratio); higher = better substrate or ligand; peptides without Tyr show the background;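 note: 11-residue human phosphosite peptides and single-mutation variants displayed on the E. coli surface, counted by deep sequencing, each peptide's frequency after selection divided by its frequency in the unselected input library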;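 note: frequency after pTyr selection over input frequency; kinase dosed for 20-30% of maximal phosphorylation in three min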
Lab note: compare phosphorylation enrichment against 0.7. Equal or greater, write Condition met. Smaller, write Condition not met.

# recordSequence, system, labelValue
data = [
    ("LLPNAYIFVVQ [L1CAM_Y418_A415P_YF]", "Hck (UniProt P08631)", "Condition met"),
    ("IMFTSYFLTIL [TAS2R16_Y239_V235M]", "Hck (UniProt P08631)", "Condition not met"),
    ("GVTLLYFGRFN [ADGRD1_Y85_YF]", "Hck (UniProt P08631)", "Condition not met"),
    ("DRLASYRDKVR [KRT12_Y139_L140R]", "Hck (UniProt P08631)", "Condition not met"),
    ("IGEGTYGVLFK [CDK2_Y15_V18L_YF]", "Hck (UniProt P08631)", "Condition met"),
    ("ALRASYTPSPV [ESS2_Y418_A423V]", "Hck (UniProt P08631)", "Condition not met"),
    ("MKDLTYASLCF [ALOX5_Y446]", "Hck (UniProt P08631)", "Condition met"),
    ("ANYTEYVATRW [CDKL5_Y171]", "Hck (UniProt P08631)", "Condition met"),
    ("KDQGIYEDFVE [MYL6_Y86_T85I_YF]", "Hck (UniProt P08631)", "Condition met"),
    ("TTEHIYGDNFF [UBA7_Y524]", "Hck (UniProt P08631)", "Condition met"),
    ("SKKSTYQALLD [GANC_Y43]", "Hck (UniProt P08631)", "Condition not met"),
    ("YDYKKYGKGLR [ZNF445_Y433]", "Hck (UniProt P08631)", "Condition not met"),
    ("LNRAGYCDALE [MTUS1_Y151_C148R]", "Hck (UniProt P08631)", "Condition not met"),
    ("SLFNGYVYSGV [NEIL3_Y71]", "Hck (UniProt P08631)", "Condition met"),
    ("EASGIYVKSII [PATJ_Y396]", "Hck (UniProt P08631)", "Condition not met"),
    ("PATFTYDEFKK [COL8A2_Y648_YF]", "Hck (UniProt P08631)", "Condition met"),
    ("GLIPAYHRVIM [NMNAT1_Y64]", "Hck (UniProt P08631)", "Condition not met"),
]
